Experiment: Intranasal pharmacokinetic study of d-amphetamine, hArg-Amp and Lys-Amp (Example 15)
Settings: male, Sprague-Dawley, rat, in vivo, inhaled or intranasal, […]

| SMILES_ENTRY | Tmax / min |
| --- | --- |
| C[C@H](N)Cc1ccccc1 | 5 |

====

Assay: Intravenous pharmacokinetic study of d-amphetamine, hArg-Amp and Lys-Amp (Example 16)
Conditions: male, Sprague-Dawley, rat, in vivo, iv, […]

| SMILES_ENTRY | Tmax (min) |
| --- | --- |
| C[C@H](N)Cc1ccccc1 | 5 |
